Biological target: hERG (Homo sapiens)
Construct: host or cells: HEK293, tetracycline-inducible hERG
Assay: hERG patch-clamp assay
Type: cell-based
Details: human, HEK293 cells expressing inducible hERG; 0.1 µM
readout_name: inhibition at 0.1 µM (%)
Hi! Could you send only the number? It should be in %, unit omitted.

# inhibition at 0.1 µM (compound: "CC(C)(C)c1cc(NC(=O)Cc2ccc(-n3cnc4cc(-c5ccc(S(C)(=O)=O)cc5)ccc43)cc2)no1" ) is 0.41

---

Target: hERG (Homo sapiens, UniProt Q12809)
Construct: host or cells: HEK293, tetracycline-inducible hERG
Sequence (Q12809 whole entry): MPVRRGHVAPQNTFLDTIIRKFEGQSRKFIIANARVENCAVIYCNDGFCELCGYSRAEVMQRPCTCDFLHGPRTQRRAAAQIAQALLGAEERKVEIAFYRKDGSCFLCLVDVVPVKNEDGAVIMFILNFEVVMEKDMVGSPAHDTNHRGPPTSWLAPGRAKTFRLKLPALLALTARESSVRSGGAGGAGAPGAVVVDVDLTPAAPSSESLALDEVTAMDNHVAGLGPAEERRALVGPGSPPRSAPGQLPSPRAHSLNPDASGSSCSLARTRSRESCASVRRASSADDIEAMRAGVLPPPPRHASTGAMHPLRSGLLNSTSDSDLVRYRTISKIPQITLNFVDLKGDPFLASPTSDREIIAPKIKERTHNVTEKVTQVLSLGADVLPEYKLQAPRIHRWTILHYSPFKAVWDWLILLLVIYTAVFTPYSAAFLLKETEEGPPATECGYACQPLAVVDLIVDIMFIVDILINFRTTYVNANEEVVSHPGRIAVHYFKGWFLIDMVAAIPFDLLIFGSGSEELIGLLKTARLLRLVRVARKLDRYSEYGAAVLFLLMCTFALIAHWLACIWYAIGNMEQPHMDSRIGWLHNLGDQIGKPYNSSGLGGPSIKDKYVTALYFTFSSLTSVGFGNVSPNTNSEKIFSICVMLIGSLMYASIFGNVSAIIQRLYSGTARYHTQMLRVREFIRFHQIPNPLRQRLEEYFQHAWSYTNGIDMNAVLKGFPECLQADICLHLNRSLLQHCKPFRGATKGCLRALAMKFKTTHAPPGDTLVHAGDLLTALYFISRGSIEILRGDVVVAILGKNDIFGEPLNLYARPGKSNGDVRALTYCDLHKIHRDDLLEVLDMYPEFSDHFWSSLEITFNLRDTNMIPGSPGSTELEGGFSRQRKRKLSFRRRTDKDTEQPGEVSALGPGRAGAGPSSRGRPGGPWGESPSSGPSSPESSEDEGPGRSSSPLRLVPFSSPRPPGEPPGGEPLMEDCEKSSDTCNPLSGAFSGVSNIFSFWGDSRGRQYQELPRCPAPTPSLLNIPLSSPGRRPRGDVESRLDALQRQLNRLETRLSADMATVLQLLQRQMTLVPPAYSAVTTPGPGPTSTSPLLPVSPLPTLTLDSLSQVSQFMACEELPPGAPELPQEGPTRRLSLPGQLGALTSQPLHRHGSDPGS
Assay: hERG patch-clamp assay
Type: cell-based
Conditions: human, HEK293 cells expressing inducible hERG; 10 µM
readout_name: inhibition at 10 µM (%)
Hi! Could you send only the number? It should be in %, unit omitted.

Lab note: molecule "CC(C)(C)c1cc(NC(=O)Cc2ccc(-n3cnc4cc(-c5ccc(S(C)(=O)=O)cc5)ccc43)cc2)no1" tested on hERG (Homo sapiens, UniProt Q12809); recorded inhibition at 10 µM was 55.9
